- systemTested: 3-hydroxyacyl-CoA dehydrogenase type-2 (Homo sapiens) (UniProt Q99714)
- protocolNotes: qHTS Assay for Inhibitors of HSD17B4, hydroxysteroid (17-beta) dehydrogenase 4;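 also: the protocol describes HADH2 (HSD17B10) and not the HSD17B4 of the title; nearly all actives have a fitted effect of over 70% in size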
- conditionDescription: recombinant HSD17B10, NADH fluorescence kinetic; series mostly up to 57.1 µM
Screen size: about 75,000 compounds; about 5,700 (7.6%) were called active. Not shown: some 7% with an inconclusive outcome. Calls follow the shape of the dose curve; as a rule, active = well fitted inhibition curve with a large enough effect; inconclusive = small, poorly fitted or top-dose-only effect; inactive = no such curve, though single readings can be large or run the other way. The full list was thinned out, with actives kept by preference.
# output must be one of 1.0 (active), 0.0 (inactive)

Reference set (6 entries):
compound | category
Cc1c(C(=O)NCCN2CCOCC2)sc2nc(-c3ccc(F)cc3)cn12 | 0.0
C=C[C@](C)(O)CCC1C(=C)CCC2[C@@](C)(CO)CCC[C@@]12C (stereo partly specified) | 0.0
O=C(CSc1nnc(-c2ccccn2)n1-c1ccccc1)Nc1ccc2c(c1)OCO2 | 0.0
Cc1occc1C(=O)Nc1nnc(-c2ccncc2)s1 | 1.0
COc1cc(C(O)c2nc3ccccc3n2C)cc(OC)c1OC (stereo unspecified) | 0.0
COC(=O)[C@@]1(Cc2ccc(OC)cc2)[C@H]2c3cc(C(=O)N4CCCC4)n(Cc4ccc(OC(F)(F)F)cc4)c3C[C@H]2CN1C(=O)c1ccccc1 | 0.0

Lookup: Returns: the outcome recorded for `Cc1cc(=O)oc(C)c1C(=O)Nc1cnc2ccccc2c1` in this assay.
Found: 0.0

Lookup: Returns: the outcome recorded for `Cc1occc1C(=O)Nc1nnc(C2CCCCC2)s1` in this assay.
Found: 0.0

====

- systemTested: 3-hydroxyacyl-CoA dehydrogenase type-2 (Homo sapiens) (UniProt Q99714)
- protocolNotes: qHTS Assay for Inhibitors of HSD17B4, hydroxysteroid (17-beta) dehydrogenase 4;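 also: the protocol describes HADH2 (HSD17B10) and not the HSD17B4 of the title; nearly all actives have a fitted effect of over 70% in size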
- conditionDescription: recombinant HSD17B10, NADH fluorescence kinetic; series mostly up to 57.1 µM
The campaign covered roughly 75,000 compounds. About 5,700 (7.6%) were called active. About 7% were inconclusive and are not listed. The call rests on the fitted dose curve; in most records, active means well fitted inhibition curve with a large enough effect; inconclusive means small, poorly fitted or top-dose-only effect; inactive means no such curve, though single readings can be large or run the other way. The sample holds actives, similar compounds and a random draw of the others, so the mix is not that of the screen.
# output must be one of active, inactive

Reference set (5 entries):
molecule | category
COC(=O)c1ccc(NC(=O)CSc2nnc(Cc3cccn3C)n2-c2ccc(F)cc2)cc1 | inactive
O=C(Cc1ccccc1)n1nc(-c2ccccc2)nc1NCc1ccco1 | inactive
CC(=O)c1c(N2CCOCC2)nc(=S)n(Cc2ccccc2)c1C | inactive
COC(=O)c1ccc(/C=N\n2c(C)nnc2C)cc1 | inactive
CC(=O)C1C(c2ccc(Cl)cc2)NC(=O)NC1(O)C(F)(F)F (stereo not drawn) | inactive

Lookup: Returns: the outcome recorded for `c1ccc(CSc2nnc(-c3ccco3)c(-c3ccco3)n2)cc1` in this assay.
Found: active

Lookup: Returns: the outcome recorded for COCCn1nnnc1C(c1cc2ccc(OC)cc2[nH]c1=O)N1CCc2ccccc2C1 (stereo not drawn) in this assay.
Found: inactive

Lookup: Returns: the outcome recorded for `COc1ccc(Cl)cc1NC(=O)c1oc(C)nc1C` in this assay.
Found: inactive

Lookup: Returns: the outcome recorded for `CCN(CC)CCCCn1c(-c2ccccc2)nc2c(N3CCOCC3)nc(C)nc21` in this assay.
Found: active

Lookup: Returns: the outcome recorded for `COc1ccccc1N1CCN(C(=O)c2cc3c(-c4ccc(Cl)cc4)nn(C)c3s2)CC1` in this assay.
Found: inactive

====

- systemTested: 3-hydroxyacyl-CoA dehydrogenase type-2 (Homo sapiens) (UniProt Q99714)
- protocolNotes: qHTS Assay for Inhibitors of HSD17B4, hydroxysteroid (17-beta) dehydrogenase 4;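 also: the protocol describes HADH2 (HSD17B10) and not the HSD17B4 of the title; nearly all actives have a fitted effect of over 70% in size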
- conditionDescription: recombinant HSD17B10, NADH fluorescence kinetic; series mostly up to 57.1 µM
Screen size: about 75,000 compounds; about 5,700 (7.6%) were called active. Another 7% or so got no clear call; they are omitted. Calls follow the shape of the dose curve; as a rule, active = well fitted inhibition curve with a large enough effect; inconclusive = small, poorly fitted or top-dose-only effect; inactive = no such curve, though single readings can be large or run the other way. This excerpt belongs to a sample that is enriched for actives.
# output must be one of T = active, F = inactive

Reference set (4 entries):
compound | category
CCCCCCN(C(=O)CCCCCN1C(=O)NC(c2ccc(C(F)(F)F)cc2)C(C(=O)OCc2ccccc2)=C1C)C(C(=O)NCCCC)c1ccc(OCC(=O)OC)c(C(=O)OC)c1 (stereo not given) | F
CCCCOc1ccc(NC(=O)CSCC(=O)OCC)cc1 | F
CCOc1ccc(CCNC(=O)C2CCN(c3ccc(N4CCOCC4)nn3)CC2)cc1OCC | T
CSCCC(Nc1nc2ccccc2s1)C(=O)O (stereo not given) | F

Lookup: Returns: the outcome recorded for `CCCC[C@H]1C(=O)N(c2ccccc2)N(c2ccc(O)cc2)C1=O` in this assay.
Found: F

Lookup: Returns: the outcome recorded for `CC(C)(C)OC(=O)c1c(N)n(CCCN2CCCC2=O)c2nc3ccccc3nc12` in this assay.
Found: T

Lookup: Returns: the outcome recorded for CC(=O)N(CC1CCCO1)C1(C(=O)NC2CCCC2)CCCCC1 (stereo not given) in this assay.
Found: F

Lookup: Returns: the outcome recorded for `N#Cc1cccc(CSc2nnc(CCCO)n2-c2ccccc2)c1` in this assay.
Found: F

Lookup: Returns: the outcome recorded for `CCOc1ccc2nc(N3CCCN(C(=O)Nc4ccccc4C)CC3)c(C#N)cc2c1` in this assay.
Found: F

Lookup: Returns: the outcome recorded for `COC(=O)[C@@]1(Cc2ccc(F)cc2)[C@@H]2[C@@H](CC(=O)[C@H]2CC(=O)C(=O)N2CCCC2)CN1C(=O)c1ccccc1` in this assay.
Found: F

====

- systemTested: 3-hydroxyacyl-CoA dehydrogenase type-2 (Homo sapiens) (UniProt Q99714)
- protocolNotes: qHTS Assay for Inhibitors of HSD17B4, hydroxysteroid (17-beta) dehydrogenase 4;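 also: the protocol describes HADH2 (HSD17B10) and not the HSD17B4 of the title; nearly all actives have a fitted effect of over 70% in size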
- conditionDescription: recombinant HSD17B10, NADH fluorescence kinetic; series mostly up to 57.1 µM
- Protocol: Assay Overview: NIH Molecular Libraries Screening Centers Network [MLSCN] NIH Chemical Genomics Center [NCGC] Structural Genomics Consortium [SGC] […] An increase in the fluorescence intensity due to conversion of NAD+ to NADH was used to measure the enzyme activity. Assay Protocol: Buffer: 100 mM Tris-HCl pH 9.0, containing 0.01 % Tween-20. […] The fluorescence intensity difference between the last and the first time points was used to compute reaction progress.
About 5,700 (7.6%) of roughly 75,000 compounds were called active. Another 7% or so got no clear call; they are omitted. Calls come from the whole dose curve; as a rule, active = well fitted inhibition curve with a large enough effect; inconclusive = small, poorly fitted or top-dose-only effect; inactive = no such curve, though single readings can be large or run the other way. For the sample, actives were picked, then their nearest neighbours and some compounds at random.
# output must be one of active, inactive

Reference set (5 entries):
compound | category
CC(=O)Nc1cccc(-c2cnc3ccccc3n2)c1 | inactive
CCCCCC(=O)Nc1ccc2oc(-c3ccncc3)nc2c1 | active
CCCC(=O)Nc1cccc(-c2cn3ccsc3n2)c1 | inactive
COc1ccc2c(c1OC)C(=O)N(c1ncn[nH]1)C2 | active
O=C(COc1ccc2oc3c(c2c1)CCCC3)Nc1ccccn1 | inactive

Lookup: Returns: the outcome recorded for CC(C)(C)n1nnnc1C(c1cccs1)N(Cc1cccnc1)CC1CCCO1 (centres undefined) in this assay.
Found: inactive

Lookup: Returns: the outcome recorded for FC(F)(F)c1ccc(CN2C[C@@H]3C(c4ccccc4)C4(c5ccccc5)CC3(C4)[C@H]2c2ccccc2)cc1 (some centres undefined) in this assay.
Found: inactive

Lookup: Returns: the outcome recorded for `CCc1c(C)sc(NC(=O)c2ccc(Br)o2)c1C(=O)OC` in this assay.
Found: active

Lookup: Returns: the outcome recorded for `CCOC(=O)c1c(NC(=O)c2cccs2)sc(C)c1C` in this assay.
Found: inactive

Lookup: Returns: the outcome recorded for `O=C(COc1ccccc1F)NC1CC1` in this assay.
Found: inactive

Lookup: Returns: the outcome recorded for `CCCOC(=O)Nc1sc2c(c1C(=O)OCC)CCC2` in this assay.
Found: inactive

Lookup: Returns: the outcome recorded for `Cc1nc2cnc(N3CCNCC3)nc2n(Cc2ccc(F)cc2)c1=O` in this assay.
Found: active

Lookup: Returns: the outcome recorded for Cc1cc(Cl)c(S(=O)(=O)NCC2CCCO2)cc1OCC(N)=O (centres undefined) in this assay.
Found: inactive

Lookup: Returns: the outcome recorded for `Fc1ccccc1OCCSc1nc2ccccc2o1` in this assay.
Found: inactive

Lookup: Returns: the outcome recorded for `c1ccc(-c2cn3cccnc3n2)cc1` in this assay.
Found: active

Lookup: Returns: the outcome recorded for O=C(NCc1ccc2c(c1)OCO2)C1CCCN(S(=O)(=O)c2cccs2)C1 (centres undefined) in this assay.
Found: inactive

Lookup: Returns: the outcome recorded for `COC(=O)c1c(NC(=O)CSc2nncs2)sc2c1CCCCC2` in this assay.
Found: inactive

Lookup: Returns: the outcome recorded for `COCCn1c(=O)c(-c2cc(F)cc(F)c2)nc2cnc(N3CCNCC3)nc21` in this assay.
Found: active

Lookup: Returns: the outcome recorded for `CC(C)[C@H](CO)Nc1nc(Nc2cc(N)cc(Cl)c2)c2ncn(C(C)C)c2n1` in this assay.
Found: inactive

Lookup: Returns: the outcome recorded for `CC(=O)Nc1ccc(-c2cn3cccnc3n2)cc1` in this assay.
Found: active

Lookup: Returns: the outcome recorded for `CCc1nc2ccccc2n(CCOCCOCCn2c(=O)c(CC)nc3ccccc32)c1=O` in this assay.
Found: inactive

Lookup: Returns: the outcome recorded for `COC(CCN(C)C)(c1ccccc1)c1ccccc1` in this assay.
Found: inactive

Lookup: Returns: the outcome recorded for `Cc1onc(-c2ccccc2Cl)c1C(=O)NCCn1ccc2ccccc21` in this assay.
Found: inactive

Lookup: Returns: the outcome recorded for `CCc1c(C)sc(NC(=O)OC)c1C(=O)N1CCOCC1` in this assay.
Found: inactive
